Reference source: patent US9650375B2

Overview of recorded Emax for various compounds
Target system: recombinant human AMPK complex 1 (containing α1β1γ1) (Homo sapiens, UniProt Q13131+Q9Y478)
Construct: made in house; host or cells: Spodoptera frugiperda Sf21 cells (baculovirus, triple infection)
Sequence (Q13131 whole entry): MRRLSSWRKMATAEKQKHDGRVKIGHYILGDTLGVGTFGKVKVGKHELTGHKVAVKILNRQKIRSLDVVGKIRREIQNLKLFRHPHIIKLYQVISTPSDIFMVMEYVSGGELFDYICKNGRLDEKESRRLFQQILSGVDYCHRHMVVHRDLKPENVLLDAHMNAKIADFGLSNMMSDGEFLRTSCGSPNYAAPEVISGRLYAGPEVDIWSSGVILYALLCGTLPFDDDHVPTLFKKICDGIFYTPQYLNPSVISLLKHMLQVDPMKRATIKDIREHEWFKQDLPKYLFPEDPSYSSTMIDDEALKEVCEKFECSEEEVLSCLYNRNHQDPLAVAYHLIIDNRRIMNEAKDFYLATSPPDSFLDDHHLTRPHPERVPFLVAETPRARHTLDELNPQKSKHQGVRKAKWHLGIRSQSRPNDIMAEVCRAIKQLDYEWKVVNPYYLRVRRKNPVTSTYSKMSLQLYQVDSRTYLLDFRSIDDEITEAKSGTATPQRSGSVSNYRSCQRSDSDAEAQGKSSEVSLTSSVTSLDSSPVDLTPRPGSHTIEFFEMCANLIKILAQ
Sequence (Q9Y478 whole entry): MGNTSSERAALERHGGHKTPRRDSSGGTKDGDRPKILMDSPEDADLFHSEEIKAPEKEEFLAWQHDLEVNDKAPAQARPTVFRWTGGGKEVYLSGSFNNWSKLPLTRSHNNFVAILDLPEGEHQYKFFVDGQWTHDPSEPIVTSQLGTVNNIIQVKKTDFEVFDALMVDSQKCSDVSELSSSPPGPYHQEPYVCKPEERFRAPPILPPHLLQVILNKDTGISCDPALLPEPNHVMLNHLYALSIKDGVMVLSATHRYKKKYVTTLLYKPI
Sequence (P54619 whole entry partner): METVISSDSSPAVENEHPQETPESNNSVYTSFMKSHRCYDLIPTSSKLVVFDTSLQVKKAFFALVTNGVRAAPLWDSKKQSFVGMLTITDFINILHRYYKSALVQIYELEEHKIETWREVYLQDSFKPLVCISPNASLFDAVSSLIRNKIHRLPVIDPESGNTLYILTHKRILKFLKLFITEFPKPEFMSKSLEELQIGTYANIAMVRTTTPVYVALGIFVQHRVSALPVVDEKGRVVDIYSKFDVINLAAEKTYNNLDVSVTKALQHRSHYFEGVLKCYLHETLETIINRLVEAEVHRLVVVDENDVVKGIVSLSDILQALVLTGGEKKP
Assay info: In vitro AMPK activation assay (AMPKSAMSF), AMPK complex 1
Assay type: biochemical
Experimental context: 10-point titration data expressed as % maximum AMP activation
Field format: number, assumed %, no unit text.

Worked examples, 8 compounds total:
Record smiles | Observable | Assay value
Cc1ccc(Cc2cc3nc(-c4ccc(C5(CO)CC5)cc4)c(Cl)cc3[nH]2)cc1C(=O)O | Emax | 573
CS(=O)(=O)c1ccc(-c2ccc(-c3nc4cc(CCCCC(=O)O)[nH]c4cc3Cl)cc2)cc1 | Emax | 575
CCOc1ccc(-c2cc3cc(Cc4ccc(C)c(C(=O)O)c4)[nH]c3cc2Cl)c(F)c1 | Emax | 265
Cc1ccc(Cc2cc3cc(-c4ccc(N5CCCC5)cc4)c(Cl)cc3[nH]2)cc1C(=O)O | Emax | 581
Cc1ccc(Cc2cc3cc(-c4ccc(-c5ccncc5)cc4)c(Cl)cc3[nH]2)cc1C(=O)O | Emax | 583
Cc1ccc(Cc2cc3cc(-c4ccc(C5(CO)CC5)cc4)c(Cl)cc3[nH]2)cc1C(=O)O | Emax | 601
Cc1ccc(Cc2cc3cc(-c4ccc(-c5ccc(S(C)(=O)=O)cc5)cc4)c(Cl)cc3[nH]2)cc1C(=O)O | Emax | 680
CS(=O)(=O)c1ccc(-c2ccc(-c3nc4cc(C[C@H]5CC[C@H](CO)CC5)[nH]c4cc3Cl)cc2)cc1 | Emax | 256

The compound listed as CS(=O)(=O)c1ccc(-c2ccc(-c3nc4cc(CCCCO)[nH]c4cc3Cl)cc2)cc1 shows Emax equal to 590

Per the records, this compound ( CS(=O)(=O)c1ccc(-c2ccc(-c3cc4cc(CCCC(=O)O)[nH]c4cc3Cl)cc2)cc1 ) has Emax equal to 370

Emax for CS(=O)(=O)c1ccc(-c2ccc(-c3nc4cc(CCCC(=O)O)[nH]c4cc3Cl)cc2)cc1 is 416

###

Emax for assorted compounds
Target system: recombinant human AMPK complex 7 (containing α2β1γ1) (Homo sapiens, UniProt P54646+Q9Y478)
Construct: made in house; host or cells: Spodoptera frugiperda Sf21 cells (baculovirus, triple infection)
Sequence (P54646 whole entry): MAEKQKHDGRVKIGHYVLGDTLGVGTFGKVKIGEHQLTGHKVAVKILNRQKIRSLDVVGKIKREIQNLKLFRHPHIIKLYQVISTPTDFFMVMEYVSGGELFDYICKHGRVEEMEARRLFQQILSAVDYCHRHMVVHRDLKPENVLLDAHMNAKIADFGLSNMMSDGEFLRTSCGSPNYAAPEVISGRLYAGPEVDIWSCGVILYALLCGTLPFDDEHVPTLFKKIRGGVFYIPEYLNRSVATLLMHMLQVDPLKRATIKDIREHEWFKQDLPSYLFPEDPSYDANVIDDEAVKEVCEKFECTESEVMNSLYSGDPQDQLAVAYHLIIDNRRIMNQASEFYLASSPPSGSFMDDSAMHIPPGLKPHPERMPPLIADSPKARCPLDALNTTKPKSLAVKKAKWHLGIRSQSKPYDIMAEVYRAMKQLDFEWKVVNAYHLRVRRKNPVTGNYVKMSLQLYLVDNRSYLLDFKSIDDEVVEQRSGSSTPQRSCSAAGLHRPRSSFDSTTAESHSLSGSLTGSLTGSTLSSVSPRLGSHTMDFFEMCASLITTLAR
Sequence (Q9Y478 whole entry): as the sequence (Q9Y478 whole entry) above
Sequence (P54619 whole entry partner): as the sequence (P54619 whole entry partner) above
Assay info: In vitro AMPK activation assay (AMPKSAMSF), AMPK complex 7
Assay type: biochemical
Experimental context: 10-point titration data expressed as % maximum AMP activation
Response body: numeric value in %, unit text excluded.

Compound | Target system | Unit abbrev | Emax
Cc1ccc(Oc2cc3nc(-c4ccc(-c5ccccc5)cc4)c(Cl)cc3[nH]2)cc1C(=O)O [Example 80] | recombinant human AMPK complex 7 (containing α2β1γ1) (Homo sapiens, UniProt P54646+Q9Y478) | % | 230
OC[C@H]1OC[C@@H](Oc2cc3nc(-c4ccc(C5(CO)CC5)cc4)c(Cl)cc3[nH]2)[C@@H]1O [Example 124] | recombinant human AMPK complex 7 (containing α2β1γ1) (Homo sapiens, UniProt P54646+Q9Y478) | % | 305

GET /value?item= Cn1ccc2cc(-c3nc4cc(O[C@@H]5CO[C@H]6[C@@H]5OC[C@H]6O)[nH]c4cc3Cl)ccc21 [Example 77] &field=Emax returns 472

Form: compound = Cc1ccc(Oc2cc3nc(-c4ccc(C5(CO)CC5)cc4)c(Cl)cc3[nH]2)cc1P(=O)(O)O [Example 114] ; Emax = 333

Sample OC[C@H]1OC[C@H](Oc2cc3nc(-c4ccc(C5(CO)CC5)cc4)c(Cl)cc3[nH]2)C[C@@H]1O [Example 122] ; Emax observed: 384

For Oc1ccccc1-c1ccc(-c2nc3cc(O[C@@H]4CO[C@H]5[C@@H]4OC[C@H]5O)[nH]c3cc2Cl)cc1 [Example 107] the compound record lists Emax as 492

Reported Emax of Cc1ccc(Oc2cc3nc(-c4ccc(-c5ccccc5)cc4)c(F)cc3[nH]2)cc1C(=O)O [Example 82] : 239
